Origin of measurements: paper PMC2756588

- TARGET_OR_SYSTEM: T1, Sla1-3, P32790
- T1 sequence (P32790 344-424, looked up): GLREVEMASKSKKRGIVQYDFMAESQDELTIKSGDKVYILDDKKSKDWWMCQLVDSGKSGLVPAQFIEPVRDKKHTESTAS
- ASSAY_INFO: SPOT array
- EXPERIMENTAL_SETUP: median of control spots 5475
Criterion: SPOT intensity strictly under 5. Met: 1 (yes). Not met: 0 (no).

BINDER	CAT
QPPLPSSAPPIPTSH	1 (yes)
RLPAPPPPPRRGPAP	1 (yes)
PPIPIVPSSPAPPLP	1 (yes)
LEFRAILFIPKRAPF	0 (no)
FPPKRKPLLRPQRSD	0 (no)
VPPVPLPFGIPPFPM	1 (yes)
